- study target: Mitogen-activated protein kinase 10 (Homo sapiens)
- test description: JNK3 kinase activity inhibitors, primary screen, biochemical, human, purified enzyme (AID 746);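 further: 0% = DMSO and 100% = reference inhibitor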
- condition: HTS, at 8 µM, active compounds read high
Among all 60,000 compounds or so, about 370 (0.62%) were called active. The sample holds actives, similar compounds and a random draw of the others, so the mix is not that of the screen.
Overview of recorded inhibition for various compounds
Reply numerically in %, unit not repeated.

Worked set:
Cc1ccc2oc(=O)c3cnn(CC(=O)N4CCCCCC4)c3c2c1: 0.73
Cc1ccc2nc3n(c(=O)c2c1)CCC3: -2.11
COc1ccc(-c2nc3n(c2Br)CCC3)cc1: -4.37
Cc1cc(N2CCCC2)n2nc(C)c(-c3ccccc3)c2n1: -0.31
COc1ccc(C(=O)CSc2nccc(=O)[nH]2)cc1: -1.11

Answer with reported inhibition of O=C1NC(c2ccncc2)Nc2sc3c(c21)CCCC3 (centres undefined)
4.12

Answer with reported inhibition of O=C(COc1ccccc1)NCCc1nc2ccccc2[nH]1
5.21

Answer with reported inhibition of CNC(=O)c1nnn(-c2ccccc2)c1C(=O)NC
-3.49

Answer with reported inhibition of COc1ccccc1-c1c(C)nn2c(C)c(C(C)=O)cnc12
0.53
